- target.of.assay: p38α (Homo sapiens, UniProt Q16539)
- Sequence (Q16539 whole entry): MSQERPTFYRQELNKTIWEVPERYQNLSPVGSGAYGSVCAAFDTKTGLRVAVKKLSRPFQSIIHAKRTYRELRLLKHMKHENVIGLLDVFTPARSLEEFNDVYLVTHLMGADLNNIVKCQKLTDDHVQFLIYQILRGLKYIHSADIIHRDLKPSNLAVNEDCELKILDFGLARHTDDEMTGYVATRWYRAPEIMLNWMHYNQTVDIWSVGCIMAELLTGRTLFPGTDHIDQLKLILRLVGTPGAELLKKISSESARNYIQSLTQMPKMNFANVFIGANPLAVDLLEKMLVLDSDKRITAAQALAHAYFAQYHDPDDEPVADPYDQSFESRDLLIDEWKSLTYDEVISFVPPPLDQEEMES
- assay.summary: p38α/MK2 cascade assay
- Format: biochemical
- test.context: Table 2; same p38α/MK2 cascade assay; 40 minutes preincubation; read-out: p38a/MK2 Cascade 40 min Pre-Incuabtion (% Inhibition): IC50
pIC50: −log10 of the molar value.
Classify by measured pIC50: fulfilled if it is equal to or exceeds 8, not fulfilled if it is smaller.

Example entries begin here.
[
  {
    "compound": "CSc1ccccc1Cn1c(C)cc(OCc2ccccc2CNC(=O)Nc2cc(C(C)(C)C)nn2-c2ccc(Cl)c(O)c2)c(Cl)c1=O",
    "assigned.class": "not fulfilled"
  },
  {
    "compound": "CNC(=O)c1ccc(C)c(-n2c(C)cc(OCc3ccccc3CNC(=O)Nc3cc(C(C)(C)C)nn3-c3ccc(O)cc3)c(Cl)c2=O)c1",
    "assigned.class": "fulfilled"
  },
  {
    "compound": "Cc1ccc(C(=O)NCCO)cc1-n1c(C)cc(OCc2ccc(F)cc2CNC(=O)Nc2cc(C(C)(C)C)nn2-c2cccc(OCCO)c2)c(Cl)c1=O",
    "assigned.class": "fulfilled"
  },
  {
    "compound": "Cc1ccc(C(=O)NCC(O)CO)cc1-n1c(C)cc(OCc2ccccc2CNC(=O)Nc2cc(C(C)(C)C)nn2-c2ccc(O)c(Cl)c2)c(Cl)c1=O (centres unmarked)",
    "assigned.class": "fulfilled"
  }
]

Query :: Evaluate COC(=O)c1ccc(C)c(-n2c(SC)nc(OCc3ccccc3CNC(=O)Nc3cc(C(C)(C)C)nn3-c3ccc(C)cc3)cc2=O)c1 : pIC50 at minimum 8?
Result :: not fulfilled

Query :: Determine whether measured pIC50 meets or exceeds 8 for Cc1ccc(C(=O)NCCN(C)C)cc1-n1c(C)cc(OCc2ccccc2CNC(=O)Nc2cc(C(C)(C)C)nn2-c2ccc(Cl)c(O)c2)c(Cl)c1=O
Result :: fulfilled
